These data points were gathered from PubChem BioAssay (NCI).

This listing pairs compounds with measured growth inhibition.
assay: NCI Yeast Anticancer Drug Screen. Data for the rad50 strain (AID 155);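 also: 0% = growth of vehicle-only cultures of the same strain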; details: S. cerevisiae rad50 strain growth inhibition; at 50.0 µM; stronger effect = higher value
The panel holds about 79,000 compounds, 15% with a hit somewhere; the sample as a whole holds those more often. Activity calls are given as the source filed them. Rule as the data show it: active = growth inhibition above about 70%; inactive = the rest.

These recorded examples may help you get a feel for the data.
compound="COc1ccc(C(c2cc3c(cc2O)OCO3)N2CCN(C(c3cc4c(cc3O)OCO4)c3ccc(OC)cc3OC)CC2)c(OC)c1 (stereo not given)" recorded_metric="growth inhibition" reported="-15.1% (inactive)"
compound="CN1N(c2ccccc2)C(=O)C2=NC=C(C#N)C(=N)C21C (stereo not given)" recorded_metric="growth inhibition" reported="14.9% (inactive)"
compound=NC(=O)N/N=C/c1ccc(Cl)cc1Cl recorded_metric="growth inhibition" reported="-3.7% (inactive)"
compound=C=CCCC(C)(C(=O)OCC)C(=O)OCC recorded_metric="growth inhibition" reported="7.45% (inactive)"
compound=O=[N+]([O-])/C(N=Nc1ccc2ccccc2c1Br)=N/Nc1ccc2ccccc2c1Br recorded_metric="growth inhibition" reported="34.5% (inactive)"

[in] So what does the record say about growth inhibition for O=C(O)C(=N\Nc1ccccc1)/C(=N\Nc1ccccc1)C(=O)O ?
[out] 30.7% (inactive)

[in] State the recorded growth inhibition for this entry: OCCOc1ccc(Cl)cc1Cl
[out] -6% (inactive)

---

test: NCI Yeast Anticancer Drug Screen. Data for the bub3 strain (AID 167); details: S. cerevisiae bub3 mutant strain, at 50.0 µM, stronger effect = higher value
About 79,000 compounds went through this panel and 15% of them were active in at least one assay; those are over-represented in the sample as a whole.
// bucketize growth inhibition: label 0: < -10%; label 1: ≥ -10% and < 10%; label 2: ≥ 10%

# example entries with known answers
compound=O=C(Nc1ccccc1O)c1ccc(Cl)c(Cl)c1 assigned_category="label 2"
compound=O=C(COc1ccc(F)cc1)OCCO assigned_category="label 0"
compound=CN(C)Cc1cc(Cl)c(O)c(CN(C)C)c1 assigned_category="label 0"
compound=CCOC(=O)CC1(CC(=O)OCC)OCCO1 assigned_category="label 0"

[in] GET /class?item= O=P(CCCCBr)(NCc1ccccc1)c1ccccc1 (stereo not drawn)
[out] label 2

[in] Which band does CCN(CC)CCCC(C)NC1CCCc2cc3c(cc21)C(=O)c1ccccc1C3=O (stereo not drawn) fall in?
[out] label 1

[in] Pick a category. Item: CC1(C)CC(=O)C2=C(C1)NC(=S)C(C#N)C2c1ccccc1 (stereo not drawn)
[out] label 2

---

assay: NCI Yeast Anticancer Drug Screen. Data for the mec2-1 strain (AID 157); details: S. cerevisiae mec2-1 strain, at 50.0 µM, stronger effect = higher value
Compounds without any hit were thinned out: in the full panel of roughly 79,000, 15% have a hit.
Some molecules, each annotated with its measured growth inhibition.
Record the value in %, omitting the unit from your answer.

molecule=O=c1[nH]n2c(=O)cc[nH]c2c1-c1nnns1 reported=-2.95
molecule=Cc1cc(C)c(C(=O)c2ccccc2C(=O)c2ccccc2)c(C)c1 reported=-5.55
molecule=OCc1c(CO)c(-c2ccc(Cl)c(Cl)c2)n2c1CCC2 reported=2.4

[in] Look up growth inhibition: COc1cc(NS(=O)(=O)c2ccc(C)cc2)c2nccnc2c1
[out] 15.7

[in] Returns the measured growth inhibition for the input molecule. Input: CCOC(=O)/C(C#N)=C/c1ccccc1F
[out] 13.5

---

experiment: NCI Yeast Anticancer Drug Screen. Data for the bub3 strain (AID 167); conditions: S. cerevisiae bub3 mutant strain, at 50.0 µM, stronger effect = higher value
About 79,000 compounds went through this panel and 15% of them were active in at least one assay; those are over-represented in the sample as a whole.
Each item that follows carries a reported growth inhibition.
Give just the numeric value; % need not be written.

The examples below pair each entry with its known result.
molecule="COc1ccccc1C1c2cc3c(cc2OC(C)(OC)C1C)OCO3 (stereo not given)" recorded_metric="growth inhibition" reported=-10.2
molecule=C=CS(=O)(=O)c1ccc(NC(=O)Nc2ccc(Cl)cc2)cc1 recorded_metric="growth inhibition" reported=1.25
molecule=C[C@]12CC[C@@H]3c4cc(OCC(F)(F)F)c(O)cc4/C(=N/O)C[C@H]3[C@@H]1CC[C@@H]2O recorded_metric="growth inhibition" reported=12.8
molecule=O=C1CS(=O)(=O)C2(CCCCC2)C(=O)N1 recorded_metric="growth inhibition" reported=-3.2
molecule="O=C(Nc1cccc([N+](=O)[O-])c1)C(=O)C(C(=O)c1ccccc1-c1ccccc1)C1OC(=O)c2ccccc21 (stereo not given)" recorded_metric="growth inhibition" reported=-6.85
molecule=CNC(=O)CN(CC(N)=O)C(=O)NC recorded_metric="growth inhibition" reported=-23
molecule=O=S1(=O)OCCOS(=O)(=O)C1F recorded_metric="growth inhibition" reported=-5.35
molecule="O=C1OC(c2ccccc2)(c2ccc(Cl)cc2)CC1/C=C(\\c1ccccc1)c1ccc(Cl)cc1 (stereo not given)" recorded_metric="growth inhibition" reported=-7.4

[in] Query (molecule): COC(=O)/C(C#N)=C(/NCCN)Nc1ccccc1 ; field requested: growth inhibition
[out] -3.1

[in] Could you tell me which growth inhibition is on file for C[N+](C)(C)CC(=O)N/N=C(/C=C/c1ccccc1)CC1OC(=O)c2ccccc21 (stereo not given) ?
[out] -7.5

---

experiment: NCI Yeast Anticancer Drug Screen. Data for the rad50 strain (AID 155);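 also: 0% = growth of vehicle-only cultures of the same strain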; conditions: S. cerevisiae rad50 strain growth inhibition; at 50.0 µM; stronger effect = higher value
This is part of a sample that, as a whole, favours compounds with a hit. Of some 79,000 tested, about 15% had one in any assay.
growth inhibition listing for selected compounds.
Use % as the unit, but write only the number.

Answered examples (5):
compound="CC(=O)NC(CCCN)C(=O)NCc1ccccc1 (stereo unspecified)" recorded_metric="growth inhibition" reported=3.45
compound=CN(CCSSCCN(C)/N=C/c1ccccc1)/N=C/c1ccccc1 recorded_metric="growth inhibition" reported=-30.6
compound="CC(C)CCCC(C)C1CCC2C3CC=C4CC(OCCC(C)C)CCC4(C)C3CCC12C (stereo unspecified)" recorded_metric="growth inhibition" reported=55.5
compound=O=C(O)CCC(=O)OCc1ccccc1 recorded_metric="growth inhibition" reported=3.15
compound=CCCCCCC(=O)C(=O)O recorded_metric="growth inhibition" reported=41.4

[in] GET /values?readout=growth inhibition&item= CC1=CC2C(c3ccccc3)Nc3ccccc3N2C1=O (stereo unspecified)
[out] 32.6

[in] Reported growth inhibition, compound OC(C(c1ccccc1)N1CCCCC1)C(O)(c1ccccc1)c1ccccc1 (stereo unspecified) : ____
[out] 12.2

[in] Look up growth inhibition: Fc1cc(Cl)c(F)cc1Cl
[out] -18

---

assay: NCI Yeast Anticancer Drug Screen. Data for the sgs1 mgt1 strain (AID 161);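 also: 0% = growth of cultures given vehicle only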; conditions: S. cerevisiae sgs1 mgt1 strain, at 50.0 µM, stronger effect = higher value
About 79,000 compounds went through this panel and 15% of them were active in at least one assay; those are over-represented in the sample as a whole.
growth inhibition: recorded values
Only the number, expressed in %, is required.

molecule=O=C(/C=C/c1ccccc1)[c-]1[c-][c-][c-][c-]1.[Fe].[c-]1[c-][c-][cH-][c-]1 measurement_unit=% reported=9.05

[in] What does the data say about its growth inhibition? Entry: CS(=O)(=O)Nc1ccc(NS(C)(=O)=O)cc1
[out] 4.45

[in] Quick one: growth inhibition of COc1cccc2c1OC(=O)C(S(=O)(=O)c1ccccc1)C2 (stereo not given) ?
[out] 5.5

[in] Query (molecule): CCCNc1nnnn1CCC ; field requested: growth inhibition
[out] -0.4

[in] Which growth inhibition reading was recorded for the molecule CCOC(=O)C1C(=O)N(O)c2cnccc21 (stereo not given) ?
[out] -12.5

[in] Please give the measured growth inhibition for this molecule: O=c1cc(-c2ccccc2)oc2c(-c3cc(Cl)cc4c(=O)cc(-c5ccccc5)oc34)cc(Cl)cc12
[out] 13.7

[in] Could you tell me which growth inhibition is on file for C/C(=N/O)c1sc(-c2nc(C)c(/C(C)=N\O)s2)nc1C ?
[out] 4.7

[in] Which value of growth inhibition has been reported for COc1cc(C(c2ccc3c(c2)OCO3)C2SCCCS2)cc(OC)c1OC (stereo not given) in the records?
[out] 21

[in] Reported growth inhibition, molecule CCCCOC(=O)C(C)O (stereo not given) : ____
[out] 21.6

[in] What value of growth inhibition has been recorded for this entry: CC(=O)c1cccc(NC(=O)N(C)C2CCCCC2)c1
[out] -3.65

[in] // growth inhibition lookup, key: C=C(C)CC1CN2CCc3cc(OC)c(OC)cc3C2CC1=O (stereo not given)
[out] 24.8

[in] Need growth inhibition of N=C(N)C1CC1 , thanks.
[out] -8.9

[in] Which growth inhibition value is on record for O/N=C(\c1ccccc1)c1ccc2ncccc2c1 ?
[out] 27.9

[in] Recorded growth inhibition of O=C(OC1CC2CCC23CCC13)c1ccccc1 (stereo not given) , please.
[out] 10.2

[in] Reported growth inhibition, molecule Brc1ccc2c(c1)C1(c3cc(Br)ccc3-2)c2cc(Br)ccc2-c2ccc(Br)cc21 : ____
[out] -13.7

[in] Name the reported growth inhibition value associated with the molecule CN1N=CSC12C(=O)N(c1ccc(Cl)cc1)C(=O)N2c1ccc(Cl)cc1 (stereo not given)
[out] 11.2

[in] Please look up its growth inhibition: COc1ccc(C(SCC(N)C(=O)O)(c2ccccc2)c2ccccc2)cc1 (stereo not given)
[out] 37

[in] // query growth inhibition value for entry O=C(NCc1ccccc1)C(c1ccccc1)c1ccccc1
[out] 2.6

[in] # lookup: growth inhibition of O=C1NC(O)c2cccc([N+](=O)[O-])c2O1 (stereo not given)
[out] 15

[in] Dear colleague, I am looking for the recorded growth inhibition of the following molecule: Cc1ccccc1NC(=O)NN
[out] -31.4

[in] Consider the molecule COc1ccc(/C=C2\NC(=S)N(/C=C3\C(=O)Oc4ccccc4C3=O)C2=O)cc1OC and give its measured growth inhibition.
[out] 13.1

[in] Looking for the measured growth inhibition of CC(C)c1cccc(C(C)C)c1NC(=O)OC1CCCCC1C (stereo not given) , can you help?
[out] 7

[in] Return reported growth inhibition; argument: Nc1ccccc1Sc1ccc(C(=O)O)cc1[N+](=O)[O-]
[out] 7.75

[in] GET /values?readout=growth inhibition&item= CCOC(=O)/C(=C\c1ccc[nH]1)C(=O)c1ccccc1
[out] 5

[in] Param item = C=CS(=O)(=O)c1ccc(NC(=O)Nc2ccc(Cl)cc2)cc1 ; retrieve measured growth inhibition.
[out] -8.8
